System: OVCAR-8
Assay: NCI tumour cell line growth inhibition, 48 h
Activity calls are given as the source filed them. No stated cut-off is given here; in the data, active = GI50 up to about 1.1 µM and inactive = higher.
The reply should name one outcome from y = active, n = inactive

Challenge: For this compound, state the assay outcome: C[S+]([O-])c1cc(=O)c2ccccc2s1 (stereo unspecified)
Response given: n

Challenge: Okay, and CS(=O)(=O)OC1CCN(C2(c3cccc(O)c3)CCCCC2)CC1 ?
Response given: n

Challenge: Okay, and CCc1nc(N)nc(N)c1-c1ccc(Cl)c(/N=C/N(C)C)c1 ?
Response given: n

Challenge: Okay, and O=C1c2cccc3cc([N+](=O)[O-])cc(c23)C(=O)N1CCNCCNCCNCCN1C(=O)c2cccc3cc([N+](=O)[O-])cc(c23)C1=O ?
Response given: y

Challenge: Okay, and N#Cc1nc(-c2ccc(-c3nc(C#N)c(N)o3)cc2)oc1N ?
Response given: n

----------
System: M14
Assay: NCI tumour cell line growth inhibition, 48 h
Calls of active or inactive are those of the source. Cut-off read from the data, not from the text of the source: active = GI50 up to about 1.1 µM and inactive = higher.
The reply should name one outcome from active, inactive

For orientation, consider the following solved cases.
[
  {
    "MOLECULE": "S=c1sc2cscc2s1",
    "QUALITATIVE LABEL": "inactive"
  },
  {
    "MOLECULE": "CCOC(=O)C(C)(c1cn(C)c2ccccc12)c1cn(C)c2ccccc12",
    "QUALITATIVE LABEL": "inactive"
  }
]

Challenge: For this molecule, state the assay outcome: C#CCn1c(=O)c(Cl)cn(/C(=C/C(=O)OCC)C(=O)OCC)c1=O
Response given: inactive

Challenge: Okay, and CO[C@H]1O[C@@H]2CO[C@@H](c3ccccc3)O[C@H]2C[C@]12CCC/C=C\CO2 ?
Response given: inactive

Challenge: Okay, and CC(=O)N(/N=C\c1ccc([N+](=O)[O-])cc1)c1ccccc1 ?
Response given: inactive

Challenge: Okay, and N#C/N=C(/NCc1ccccc1)N(Cc1ccccc1)Cc1ccccc1 ?
Response given: inactive

Challenge: Okay, and O=c1[nH]nc(Cc2ccc(Cl)cc2)n1/N=C\CC/C=N\n1c(Cc2ccc(Cl)cc2)n[nH]c1=O ?
Response given: inactive

----------
System: ACHN
Test: NCI tumour cell line growth inhibition, 48 h
Calls of active or inactive are those of the source. No stated cut-off is given here; in the data, active = GI50 up to about 1.1 µM and inactive = higher.
In this section we review reported GI50 values for a set of compounds.

[
  {
    "COMPOUND": "COC1C(O)CC(OC2C(C)OC(Oc3cc(O)c4c(O)c5c(cc4c3)C[C@@H]([C@H](OC)C(=O)[C@@H](O)[C@@H](C)O)[C@H](OC3CC(OC4CC(OC6CC(C)(O)C(O)C(C)O6)C(O)C(C)O4)C(O)C(C)O3)C5=O)CC2OC(C)=O)OC1C (some centres undefined)",
    "GI50": "56.1 µM (inactive)"
  },
  {
    "COMPOUND": "CO/N=C(/C(=O)OC)c1ccccc1COc1ccccc1C(F)(F)F",
    "GI50": "83.6 µM (inactive)"
  },
  {
    "COMPOUND": "CCC1(O)C=CC(=O)C=C1",
    "GI50": "20.6 µM (inactive)"
  }
]

// next entry
Challenge: For the compound shown here, c1ccc(-c2nc(-c3ccccc3SSc3ccccc3-c3nc(-c4ccccc4)nn3-c3ccccc3)n(-c3ccccc3)n2)cc1 , give the reported GI50.
Response given: > 100 µM (inactive)

----------
System: UACC-62
Assay: NCI tumour cell line growth inhibition, 48 h
The source made the active and inactive calls. Rule as the data show it: active = GI50 up to about 1.1 µM and inactive = higher.
The reply should name one outcome from y (active), n (inactive)

[
  {
    "MOLECULE": "CN(C)C(=S)/N=c1\\ss/c(=N\\S(=O)(=O)c2ccccc2)n1-c1ccccc1",
    "QUALITATIVE LABEL": "y"
  },
  {
    "MOLECULE": "CN1C(=O)CN2C(Cl)(Cl)C2(c2ccccc2)c2cc(Cl)ccc21 (configuration not stated)",
    "QUALITATIVE LABEL": "n"
  },
  {
    "MOLECULE": "c1ccc2c(c1)CCN(C1=NCCO1)C2",
    "QUALITATIVE LABEL": "n"
  },
  {
    "MOLECULE": "COC1C=C(NCC2(CO)CCC2)N=C(N)N1 (configuration not stated)",
    "QUALITATIVE LABEL": "n"
  },
  {
    "MOLECULE": "NC(=O)c1c([N+](=O)[O-])cc(C(F)(F)F)cc1[N+](=O)[O-]",
    "QUALITATIVE LABEL": "n"
  },
  {
    "MOLECULE": "CCCCCCN(CCCCCC)C(=S)N/N=C(\\C)c1ccccn1",
    "QUALITATIVE LABEL": "y"
  }
]

Challenge: For this molecule, state the assay outcome: NNC(=O)c1cccc2c1Oc1ccccc1S2
Response given: n

Challenge: Okay, and C#CCn1c(=O)c(I)cn(/C(=C\C(=O)OCC)C(=O)OCC)c1=O ?
Response given: n

Challenge: Okay, and CCNC(=O)O/N=C1\CCC2[C@@H]3CC=C4C[C@@H](OC(=O)NCC)CC[C@]4(C)C3CC[C@]12C (some centres not stated) ?
Response given: y

Challenge: Okay, and CC(NC(=O)/C(C#N)=C/c1ccc2[nH]ccc2c1)c1ccccc1 (configuration not stated) ?
Response given: n

Challenge: Okay, and COc1cc2ncnc(Nc3cccc(Br)c3)c2cc1OC ?
Response given: n

Challenge: Okay, and Cc1ccc(Sc2ccccc2N)cc1 ?
Response given: n

Challenge: Okay, and O/N=N/c1ccc2ccccc2n1 ?
Response given: n

Challenge: Okay, and O=[N+]([O-])c1cc(Cl)cc2c1nc(NCCO)c1ccccc12 ?
Response given: n

Challenge: Okay, and Cc1c(CCN=P(c2ccccc2)(c2ccccc2)c2ccccc2)c(=O)n2c([nH]c3ccccc32)c1C#N ?
Response given: n

Challenge: Okay, and CC1=CCC[C@@](C)(O)[C@@H]2C[C@H]3C(CSc4ccccc4)C(=O)O[C@H]3[C@@H](O2)[C@H](C)CCC1 (some centres not stated) ?
Response given: n

Challenge: Okay, and CC(CO)CCC(O)C(C)(O)C1CCC2(O)C3=CC(=O)C4CC(O)C(O)CC4(C)C3CCC12C (configuration not stated) ?
Response given: n

Challenge: Okay, and Cc1ccc([S+]([O-])/C=C(\NC(=O)OCc2ccccc2)C(F)(F)F)cc1 (configuration not stated) ?
Response given: n

Challenge: Okay, and Cc1cc2occ(-c3ccc(Cl)cc3)c2c(=O)o1 ?
Response given: n

Challenge: Okay, and N#Cc1nc(-c2ccc(-c3nc(C#N)c(N)o3)cc2)oc1N ?
Response given: n

Challenge: Okay, and COc1ccc(NC(=S)NNC(=O)c2cc(-c3ccccc3)nc3ccccc23)cc1 ?
Response given: n

Challenge: Okay, and N=C(N)NCCCS(=O)(=O)Nc1ccc(Nc2c3ccccc3nc3cc([N+](=O)[O-])ccc23)cc1 ?
Response given: n

----------
Tested on: NCI-H226
Experiment: NCI tumour cell line growth inhibition, 48 h
The source made the active and inactive calls. Cut-off read from the data, not from the text of the source: active = GI50 up to about 1.1 µM and inactive = higher.
The reply should name one outcome from 1 = active, 0 = inactive

[
  {
    "COMPOUND": "CC(C)C[C@H](NC(=O)[C@H](Cc1cccc2ccccc12)NC(=O)N1CCOCC1)B(O)O",
    "QUALITATIVE LABEL": 1
  },
  {
    "COMPOUND": "S=c1nc(Nc2ccc(Br)cc2)c2c3c(sc2[nH]1)CN(N1CCc2c(sc4[nH]c(=S)nc(Nc5ccc(Br)cc5)c24)C1)CC3",
    "QUALITATIVE LABEL": 0
  },
  {
    "COMPOUND": "O=C1CCC(=O)N1n1c(Cc2ccc(Cl)cc2)n[nH]c1=O",
    "QUALITATIVE LABEL": 0
  },
  {
    "COMPOUND": "O=c1cc(/C=C/c2ccc(O)c(O)c2)cc(/C=C/c2ccc(O)c(O)c2)o1",
    "QUALITATIVE LABEL": 0
  },
  {
    "COMPOUND": "O=c1[nH]c2c(c(=O)[nH]1)SC(c1ccccc1)C2 (stereo not given)",
    "QUALITATIVE LABEL": 0
  }
]

Challenge: For this compound, state the assay outcome: CC(C)C(OC(=O)c1ccc(NCc2cc(O)ccc2O)cc1)C(C)C
Response given: 0

Challenge: Okay, and O=C(CC(C(=O)c1cccs1)c1ccsc1)c1ccco1 (stereo not given) ?
Response given: 0

Challenge: Okay, and Cn1c2c3c(F)c(F)ccc3nc-2cc2ccccc21 ?
Response given: 0

Challenge: Okay, and COC(=O)C1(Cc2ccc3c(c2)CCC3)Cc2cc3c(cc2C1)CCC3 ?
Response given: 0

Challenge: Okay, and C[C@]12CCC(=O)C(O)=C1CC[C@@H]1C2CC[C@]2(C)NC(=O)CCC12 (stereo not given in full) ?
Response given: 0
